protocol.details: chemical genetic growth profiling, strain panel (AID 1159580);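 further: tested at 20 µM; growth read once vehicle control cultures reached saturation at 30 °C; 1 = growth at the plate median or of vehicle wells; lower values mean less growth of the strain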
recorded.conditions: S. cerevisiae deletion strains, growth OD, locus YAL013W, strain DEP1, active compounds read low
The whole screen tested about 5,500 compounds, of which about 2,000 (36%) were called active. Another 18% or so got no clear call; they are omitted. The list shows a part of the results.
value.type: normalized growth

Solved entries:
compound	normalized growth
Cc1ccc(O)cc1	1.02 (inactive)
Cc1ccc2cc(C)c(C)cc2c1	0.994 (inactive)

Provide normalized growth values for the following items, in order.
1. CC12CCC(C1)C(C)(C)C2NC(=O)c1cccs1 (configuration not stated)
2. OCC(O)Cc1ccc2c(c1)OCO2 (configuration not stated)
3. CC(=O)O[C@@](C)(CCC=C(C)C)C1CC=C(C)CC1 (some centres not stated)
4. O=C(O)c1cc(=O)c2ccc(Cl)cc2[nH]1
5. COc1ccc(C[C@H]2NC[C@H](O)[C@H]2OC(C)=O)cc1

1. 0.976 (inactive)
2. 1.02 (inactive)
3. 1.02 (inactive)
4. 1.01 (inactive)
5. 0.0582 (active)

* * *

protocol.details: chemical genetic growth profiling, strain panel (AID 1159580)
recorded.conditions: S. cerevisiae deletion strains, growth OD, locus YOR080W, strain dia2, active compounds read low
The whole screen tested about 5,500 compounds, of which about 2,000 (36%) were called active. About 18% were inconclusive and are not listed. The list shows a part of the results.
value.type: normalized growth
Answers are plain numbers.

compound	normalized growth
CN1C2CC3C[C@H]1C(O3)C2O (stereo partly drawn)	1.02
CCC1(C)CC(=O)NC1=O (stereo not drawn)	0.976
CN=C(NC#N)NCCSCc1nc[nH]c1C	1

Provide normalized growth values for the following items, in order.
1. COc1ccc(-c2coc3c(O)c(OC)ccc3c2=O)cc1
2. CN=C(NC#N)NCCSCc1nc(N=C(N)N)cs1
3. NC/C=C/C(=O)O
4. COc1ccc2cc1Oc1ccc(cc1)C[C@H]1c3c(cc4c(c3Oc3cc5c(cc3OC)CCN(C)[C@@H]5C2)OCO4)CCN1C
5. COc1ccc([C@@H]2CC(=O)c3c(O)cc(O)cc3O2)cc1O
6. C1CCc2nnnn2CC1

1: 0.992; 2: 0.974; 3: 1; 4: 0.977; 5: 0.979; 6: 1

Provide normalized growth values for the following items, in order.
1. CC(=O)[C@H]1CCC2C3C[C@H](C)C4=CC(=O)CC[C@]4(C)C3[C@@H](O)C[C@@]21C (stereo partly drawn)
2. CC(=O)O[C@@](C)(CCC=C(C)C)C1CC=C(C)CC1 (stereo partly drawn)

1: 0.984; 2: 0.991

Provide normalized growth values for the following items, in order.
1. CCc1ccc(CCOc2ccc(CC3SC(=O)NC3=O)cc2)nc1 (stereo not drawn)
2. COC(=O)C1=COC(OC2OC(CO)C(O)C(O)C2O)C2C(C)CC(=O)C12O (stereo not drawn)

1.01
0.992

* * *

protocol.details: chemical genetic growth profiling, strain panel (AID 1159580)
recorded.conditions: S. cerevisiae deletion strains, growth OD, locus YLR262C, strain YPT6, active compounds read low
Screen size: about 5,500 compounds; about 2,000 (36%) were called active. Another 18% or so got no clear call; they are omitted. Some of the results follow.
We label by threshold. Values of normalized growth strictly beneath 0.9 are true (1). Values of 0.9 and up are false (0).

compound	class.name
CCCC(C)(SCC(=O)O)SCC(=O)O	false (0)
CN1C(=O)CN=C(c2ccccc2)c2ccccc21	false (0)
CC(C)CC1C(=O)N2CCC[C@H]2C2(O)O[C@](NC(=O)C3C=C4c5cccc6[nH]c(Br)c(c56)C[C@H]4N(C)C3)(C(C)C)C(=O)N12 (stereo partly drawn)	false (0)
Nc1cc(-c2ccc(Cl)cc2)nc(N)n1	true (1)
Cc1ccc(C(=O)C(C)CN2CCCCC2)cc1 (stereo not drawn)	false (0)
C=CC(C)(C)c1c2c(c(O)c3c(=O)c4ccc(O)c(O)c4oc13)C=CC(C)(C)O2	true (1)

API: query returns whether the compound falls strictly under 0.9 in normalized growth. Query: O=C(O)CSCCOc1ccccc1 false (0)

For O=C(c1ccccc1)C1CCN(c2ccc(C(F)(F)F)cc2[N+](=O)[O-])CC1 then? false (0)

For S=C=NCc1ccccc1 then? true (1)

For CC[C@@H](CO)NCCN[C@@H](CC)CO then? false (0)

For FC(F)(F)Oc1ccc(-c2noc(CSc3ccc(Br)cc3)n2)cc1 then? false (0)

* * *

protocol.details: chemical genetic growth profiling, strain panel (AID 1159580);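 further: tested at 20 µM; growth read once vehicle control cultures reached saturation at 30 °C; 1 = growth at the plate median or of vehicle wells; lower values mean less growth of the strain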
recorded.conditions: S. cerevisiae deletion strains, growth OD, locus YJL115W, strain asf1, active compounds read low
The whole screen tested about 5,500 compounds, of which about 2,000 (36%) were called active. Inconclusive results (about 18%) are left out. The list shows a part of the results.
value.type: normalized growth

Solved entries:
molecule	result
COc1ccc([C@@H]2CC(=O)c3c(O)cc(O)cc3O2)cc1O	0.984 (inactive)
CCOC(=O)c1ncn2c1CN(C)C(=O)c1cc(F)ccc1-2	1.02 (inactive)
CC1(C)C2CC[C@]3(C)C(C(=O)C=C4[C@@H]5C[C@@](C)(C(=O)O)CC[C@]5(C)CC[C@]43C)[C@@]2(C)CC[C@@H]1O (some centres undefined)	1.01 (inactive)
Cn1cc[nH]c1=S	0.988 (inactive)
CC1(C)C2CC[C@]3(C)C(C(=O)C=C4[C@@H]5C[C@@](C)(C(=O)O)CC[C@]5(C)CC[C@]43C)[C@@]2(C)CC[C@@H]1OC(=O)CCC(=O)O (some centres undefined)	0.983 (inactive)

Provide normalized growth values for the following items, in order.
1. CC[C@H]1OC(=O)C[C@@H](O)[C@H](C)[C@@H](O[C@@H]2O[C@H](C)[C@@H](O[C@H]3C[C@@](C)(O)[C@@H](O)[C@H](C)O3)[C@H](N(C)C)[C@H]2O)[C@@H](CC=O)C[C@@H](C)C(=O)/C=C/C(C)=C/[C@@H]1CO[C@@H]1O[C@H](C)[C@@H](O)[C@@H](OC)[C@H]1OC
2. Cc1ccc(O)cc1

0.983 (inactive)
1.01 (inactive)

Provide normalized growth values for the following items, in order.
1. OCCN(CCO)c1nc(N2CCCCC2)c2nc(N(CCO)CCO)nc(N3CCCCC3)c2n1
2. CC(C(=O)O)c1ccc2c(c1)[nH]c1ccc(Cl)cc12 (centres undefined)
3. C=CCc1ccc2c(c1)OCO2

["0.99 (inactive)", "0.985 (inactive)", "1.02 (inactive)"]

* * *

protocol.details: chemical genetic growth profiling, strain panel (AID 1159580);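 further: tested at 20 µM; growth read once vehicle control cultures reached saturation at 30 °C; 1 = growth at the plate median or of vehicle wells; lower values mean less growth of the strain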
recorded.conditions: S. cerevisiae deletion strains, growth OD, locus YDR195W, strain ref2
The whole screen tested about 5,500 compounds, of which about 2,000 (36%) were called active. Inconclusive results (about 18%) are left out. Cut-off read from the data, not from the text of the source: active = normalized growth mostly below about 0.91 (no sharp cut-off); inconclusive = no clear call, values can overlap the other calls; inactive = mostly above about 0.92. The list shows a part of the results.
Write down the outcome that applies. Available outcomes: active, inactive

Observe how each entry below is paired with its result.
molecule	class.name
O=C(/C=C/c1ccccc1)O[C@H]1C[C@@H](O)[C@]2(O)C=CO[C@@H](O[C@@H]3O[C@H](CO)[C@@H](O)[C@H](O)[C@H]3O)[C@H]12	inactive
O=C(/C=C/C=C/c1ccc2c(c1)OCO2)N1CCCCC1	active
OCC(O)Cc1ccc2c(c1)OCO2 (stereo not given)	inactive
c1ccc(CC2=NCCN2)cc1	inactive
C=C1CC[C@H](O)C/C1=C/C=C1\CCC[C@]2(C)C([C@H](C)/C=C/[C@H](C)C(C)C)CC[C@@H]12 (stereo not given in full)	inactive

So what was the verdict on C/C=C(/C(=C/C)c1ccc(O)cc1)c1ccc(O)cc1 in this test? inactive

For COc1ccc(C2CC(=O)c3ccc(OC)cc3O2)cc1 (stereo not given) then? active

For NC(N)=NOCC[C@H](N)C(=O)O then? inactive

For COc1ccc2c(c1)OC[C@@H](Cc1ccc(OC)c(OC)c1)[C@H]2O then? inactive

For Cc1ccc(O)cc1 then? inactive

* * *

protocol.details: chemical genetic growth profiling, strain panel (AID 1159580);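 further: tested at 20 µM; growth read once vehicle control cultures reached saturation at 30 °C; 1 = growth at the plate median or of vehicle wells; lower values mean less growth of the strain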
recorded.conditions: S. cerevisiae deletion strains, growth OD, locus YIL073C, strain SPO22, active compounds read low
About 2,000 (36%) of roughly 5,500 compounds were called active. About 18% were inconclusive and are not listed. The list shows a part of the results.
value.type: normalized growth
One number for each entry.

Solved entries:
molecule	normalized growth
COc1ccc(-c2coc3c(OC)c(O)ccc3c2=O)cc1	0.884
COc1ccc(-c2coc3c(OC)c(OC)cc(O)c3c2=O)cc1	0.9
NC(N)=NOCC[C@H](N)C(=O)O	0.915
CC(C)CC1C(=O)N2CCC[C@H]2C2(O)O[C@](NC(=O)C3C=C4c5cccc6[nH]c(Br)c(c56)C[C@H]4N(C)C3)(C(C)C)C(=O)N12 (stereo partly specified)	0.925
COc1ccc2c(c1)OC[C@@H](Cc1ccc(OC)c(OC)c1)[C@H]2O	0.919

// below: normalized growth requested for another molecule
Recorded normalized growth of COC(=O)[C@@H]1C(O)CC[C@H]2CN3CCc4c([nH]c5ccccc45)[C@@H]3C[C@@H]21 (stereo partly specified) , please. 0.915

Where these numbers come from: PubChem BioAssay AID1159580
